STUDY_SYSTEM: αvβ3 from human placenta (Homo sapiens, UniProt P05106+P06756)
Construct: αvβ3 from human placenta
Sequence (P06756 31-889 limits assumed): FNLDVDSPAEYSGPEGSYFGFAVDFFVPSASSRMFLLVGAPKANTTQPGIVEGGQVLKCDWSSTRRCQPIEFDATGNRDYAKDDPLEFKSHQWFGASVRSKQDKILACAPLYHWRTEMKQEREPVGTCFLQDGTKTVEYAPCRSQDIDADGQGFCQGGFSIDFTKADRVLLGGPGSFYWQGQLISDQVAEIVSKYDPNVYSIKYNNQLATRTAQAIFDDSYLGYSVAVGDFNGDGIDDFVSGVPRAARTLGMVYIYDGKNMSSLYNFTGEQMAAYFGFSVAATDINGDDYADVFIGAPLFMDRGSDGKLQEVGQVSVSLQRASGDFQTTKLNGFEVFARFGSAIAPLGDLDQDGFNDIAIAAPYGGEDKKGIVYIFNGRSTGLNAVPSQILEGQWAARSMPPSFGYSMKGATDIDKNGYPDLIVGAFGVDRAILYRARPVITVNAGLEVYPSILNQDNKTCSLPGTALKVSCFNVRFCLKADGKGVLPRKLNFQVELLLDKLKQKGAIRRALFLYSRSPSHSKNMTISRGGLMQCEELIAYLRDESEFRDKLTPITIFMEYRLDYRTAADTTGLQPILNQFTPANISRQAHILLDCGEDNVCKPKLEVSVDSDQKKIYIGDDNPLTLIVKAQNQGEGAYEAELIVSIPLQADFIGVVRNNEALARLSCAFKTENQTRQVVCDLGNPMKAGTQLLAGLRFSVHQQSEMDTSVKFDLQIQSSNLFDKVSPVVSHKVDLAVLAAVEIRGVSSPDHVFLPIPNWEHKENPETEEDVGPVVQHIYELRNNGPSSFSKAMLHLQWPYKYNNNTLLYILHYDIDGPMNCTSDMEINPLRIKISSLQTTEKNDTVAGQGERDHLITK
Sequence (P06756 891-1048 partner limits assumed): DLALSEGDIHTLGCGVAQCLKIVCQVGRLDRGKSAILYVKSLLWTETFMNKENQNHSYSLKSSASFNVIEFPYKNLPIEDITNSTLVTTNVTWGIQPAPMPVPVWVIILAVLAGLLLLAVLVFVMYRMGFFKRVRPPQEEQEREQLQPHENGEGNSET
Sequence (P05106 27-788): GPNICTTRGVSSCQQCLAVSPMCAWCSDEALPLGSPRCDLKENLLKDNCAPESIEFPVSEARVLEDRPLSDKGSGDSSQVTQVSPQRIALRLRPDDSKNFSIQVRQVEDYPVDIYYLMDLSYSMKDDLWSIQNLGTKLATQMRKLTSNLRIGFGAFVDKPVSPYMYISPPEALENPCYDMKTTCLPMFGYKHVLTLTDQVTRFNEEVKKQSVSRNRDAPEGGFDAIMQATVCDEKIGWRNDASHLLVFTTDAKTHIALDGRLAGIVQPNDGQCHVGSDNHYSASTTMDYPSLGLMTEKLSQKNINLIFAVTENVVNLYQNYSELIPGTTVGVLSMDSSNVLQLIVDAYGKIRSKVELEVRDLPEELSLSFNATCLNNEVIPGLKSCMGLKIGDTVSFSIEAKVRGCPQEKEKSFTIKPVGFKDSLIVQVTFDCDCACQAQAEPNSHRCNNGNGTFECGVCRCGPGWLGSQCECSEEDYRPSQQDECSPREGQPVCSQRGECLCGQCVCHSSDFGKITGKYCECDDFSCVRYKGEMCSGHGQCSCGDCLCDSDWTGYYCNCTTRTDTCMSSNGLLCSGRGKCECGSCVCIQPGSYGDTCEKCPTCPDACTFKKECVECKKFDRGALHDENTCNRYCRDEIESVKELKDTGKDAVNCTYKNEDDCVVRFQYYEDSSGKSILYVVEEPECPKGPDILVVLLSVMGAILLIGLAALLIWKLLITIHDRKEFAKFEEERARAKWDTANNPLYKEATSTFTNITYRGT
ASSAY_DETAILS: αvβ3/echistatin binding inhibition (I125-echistatin, scintillation proximity beads)
EXPERIMENTAL_SETUP: inhibition of I125-echistatin binding to αvβ3; 1 hour at room temperature; determined in duplicate from concentration series
RECORDED_METRIC: Ki (nM)

                                chem_smiles  value_observed
0  CCCNC(=O)Nc1cccc(-c2ccc(OC[C@H](NS(=O)(=O)c3c(C)cc(C)cc3C)C(=O)O)cc2)c1               4

Origin of the recorded values: patent US6545029B2
